# procedureSummary: cAMP Responsive Elements (CRE) small molecule antagonists, cell-based qHTS assay (AID 1963591); also: % is scaled to controls: 0 for no effect and ±100 for the full control effect
# reportedConditions: CRE-bla HEK293T, beta-lactamase FRET ratio; series mostly up to 92.4 µM
# From the text: U.S. Tox21 Program National Center for Advancing Translational Sciences [NCATS] Division of Preclinical Innovation [DPI] U.S. Environmental Protection Agency [EPA] National Institutes of Environmental Health Sciences [NIEHS] National Toxicology Program [NTP] U.S. Food and Drug Administration [FDA] […] The activation of the report gene under culture conditions can be detected by fluorescence intensity. […]
Results filed as inconclusive are left out. Activity calls are given as the source filed them. Calls follow the shape of the dose curve; as a rule, active = well fitted inhibition curve with a large enough effect in the signal ratio in the repeat runs (not every such curve was filed as active); inconclusive = weak or mixed curves, or effect the other way; inactive = flat fitted curve, though single readings scatter; the % refers to the signal ratio.
Respond with a class label; see T for active, F for inactive

c1ccc(Nc2ccc(Nc3ccccc3)cc2)cc1    F
C1=CCC=C1    F
Nc1ccc2c(c1)Cc1ccccc1-2    F
ClC1=C(Cl)[C@]2(Cl)[C@H]3[C@H]([C@@H]4C=C[C@H]3C4)[C@@]1(Cl)C2(Cl)Cl    F

Query: // param item: CCC(C)Br (stereo unspecified) ; yields the recorded call
Result: F

Query: # outcome recorded in this test, key = C=CC(=C)C
Result: F

Query: Each molecule tested received a call. Report the one for CCCCCCBr .
Result: F

Query: Hi team, can someone confirm the assay call for CCS(=O)(=O)c1cccnc1S(=O)(=O)NC(=O)Nc1nc(OC)cc(OC)n1 ?
Result: F

Query: In this assay, the call recorded for C/C(=C\c1ccccc1)[N+](=O)[O-] was what?
Result: F

Query: Called result for CCC1(CC)C(=O)NC(=O)NC1=O
Result: F

Query: So what was the verdict on COc1ccc2c(c1OC)C(=O)O[C@H]2[C@@H]1c2cc3c(cc2CCN1C)OCO3 in this test?
Result: F

Query: Recorded test outcome, item COP(=O)(OC)OC(Br)C(Cl)(Cl)Br (stereo unspecified)
Result: F

Query: Write down the call the test reported for this molecule. Item: O=C(O)CCCCCCNC1c2ccccc2CCc2ccccc21
Result: F

Query: Dear all, I need the recorded test outcome for CC(C)O.CC(C)O.OCCN(CCO)CCO.OCCN(CCO)CCO.[Ti] , thank you.
Result: F

Query: Just curious, what result did CCOP(=S)(OCC)SCS(=O)(=O)C(C)(C)C get here?
Result: F

* * *

# procedureSummary: p53 small molecule agonists, cell-based qHTS assay with rat liver microsomes: qHTS cell viability counter screen (AID 1963580); also: % is scaled to controls: 0 for no effect and ±100 for the full control effect; nearly all actives have a fitted effect of over 45% in size
# reportedConditions: p53RE-bla HCT-116 + rat microsomes, ATP viability, 16 h; series mostly up to 66 µM
Inconclusive results are not listed. Calls of active or inactive are those of the source. Calls follow the shape of the full dose curve.
Permitted responses: yes (1) = active, no (0) = inactive

Would you please look over these solved cases?
C[N+]1(C)[C@@H]2CC[C@H]1CC(OC(=O)C(CO)c1ccccc1)C2 (some centres not stated)    no (0)
CCCCCCBr    no (0)
COP(=S)(OC)Oc1cc(Cl)c(I)cc1Cl    no (0)
ClCc1cccc(Cl)c1    no (0)
CCC1(C2=NCCN2)Cc2ccccc2O1 (configuration not stated)    no (0)

Proceed to the following item.
Query: Assay outcome for CC(Cl)(Cl)Cl : what was it?
Result: no (0)

* * *

# procedureSummary: Nuclear factor erythroid 2-related factor 2/antioxidant responsive element (Nrf2/ARE) small molecule agonists: qHTS cell viability counter screen in human keratinocytes (AID 1919968); also: % is scaled to controls: 0 for no effect and ±100 for the full control effect; nearly all actives have a fitted effect of over 55% in size
# reportedConditions: KeratinoSens HaCaT ARE cells viability, CellTiter-Fluor, 24 h; series mostly up to 92.4 µM
Records with an inconclusive call do not appear. Calls of active or inactive are those of the source. Calls follow the shape of the dose curve; as a rule, active = well fitted cell-killing curve with a large enough effect in the repeat runs; inconclusive = weak or mixed curves, or effect the other way; inactive = flat fitted curve, though single readings scatter.
Could you please pick one outcome from this set? active, inactive

C=CCOC(=O)C(C)(C)OC(=O)c1cc(-n2c(=O)cc(C(F)(F)F)n(C)c2=O)ccc1Cl    inactive

Query: Recorded test outcome, item ClCc1ccccc1Cl
Result: inactive

Query: What classification did CCCCCCCCCC(=O)O[C@H]1CC[C@H]2[C@@H]3CCC4=CC(=O)CC[C@@H]4[C@H]3CC[C@]12C end up with in this test?
Result: inactive

Query: Could you check what this test reported for O=C(O)COc1ccc(Cl)cc1 ?
Result: inactive

Query: How was CC(=O)[O-].CC(=O)[O-].[Co+2] classified in this test?
Result: inactive

Query: // param item: C=C(Cl)Cl ; yields the recorded call
Result: inactive

Query: Called result for CCCCOC(=O)[C@@H](C)Oc1ccc(Oc2ccc(C#N)cc2F)cc1
Result: inactive

Query: Called result for CCOP(=S)(S)OCC
Result: inactive
